I'd be grateful if you could share measured pest or weed control at 15.625 g/ha for these entries.
# System: barnyardgrass (Echinochloa crus-galli)
# PROCEDURE SUMMARY: Test G Pre-Emergence Protocol
# Format: in vivo
# SETUP CONDITIONS: Echinochloa crus-galli, pre-emergence, 312 h, 15.625 g ai/ha, evaluated after 13 days, read-out: Barnyardgrass damage rating (100=total damage to plant; 0=no damage to plant)
Give bare numbers, in %.

Known results for compounds:
CSc1ccncc1NC(=O)[C@H]1C(=O)N(C)C[C@@H]1c1cccc(C(F)(F)F)c1 (racemic) | 0
CN1C[C@H](c2ccc(C(F)(F)F)cc2)[C@@H](C(=O)Nc2cnccc2S(C)(=O)=O)C1=O (racemic) | 0
COc1cc(OC(F)(F)F)cc(C2CN(C)C(=O)C2C(=O)Nc2cccc(F)c2F)c1 (stereo not shown) | 40
CN1C[C@H](c2cccc(C(F)(F)F)c2)[C@@H](C(=O)Nc2cccc(O)c2F)C1=O (racemic) | 0
COc1cc(C2CN(C)C(=O)C2C(=O)Nc2cccc(F)c2F)cc(C(F)(F)F)c1F (stereo not shown) | 0
Cc1c(F)cccc1NC(=O)[C@@H]1C(=O)N(C)C[C@H]1c1ccnc(OCC(F)(F)F)c1 (racemic) | 10

Query: Please report pest or weed control at 15.625 g/ha for the following compound: CN1C[C@@H](c2ccc(C(F)(F)F)cc2)[C@H](C(=O)Nc2ccc(F)nn2)C1=O (racemic)
Response: 0
